# study system: human HER3 receptor on cells (human, UniProt P21860 20-1342)
# Sequence (P21860 20-1342): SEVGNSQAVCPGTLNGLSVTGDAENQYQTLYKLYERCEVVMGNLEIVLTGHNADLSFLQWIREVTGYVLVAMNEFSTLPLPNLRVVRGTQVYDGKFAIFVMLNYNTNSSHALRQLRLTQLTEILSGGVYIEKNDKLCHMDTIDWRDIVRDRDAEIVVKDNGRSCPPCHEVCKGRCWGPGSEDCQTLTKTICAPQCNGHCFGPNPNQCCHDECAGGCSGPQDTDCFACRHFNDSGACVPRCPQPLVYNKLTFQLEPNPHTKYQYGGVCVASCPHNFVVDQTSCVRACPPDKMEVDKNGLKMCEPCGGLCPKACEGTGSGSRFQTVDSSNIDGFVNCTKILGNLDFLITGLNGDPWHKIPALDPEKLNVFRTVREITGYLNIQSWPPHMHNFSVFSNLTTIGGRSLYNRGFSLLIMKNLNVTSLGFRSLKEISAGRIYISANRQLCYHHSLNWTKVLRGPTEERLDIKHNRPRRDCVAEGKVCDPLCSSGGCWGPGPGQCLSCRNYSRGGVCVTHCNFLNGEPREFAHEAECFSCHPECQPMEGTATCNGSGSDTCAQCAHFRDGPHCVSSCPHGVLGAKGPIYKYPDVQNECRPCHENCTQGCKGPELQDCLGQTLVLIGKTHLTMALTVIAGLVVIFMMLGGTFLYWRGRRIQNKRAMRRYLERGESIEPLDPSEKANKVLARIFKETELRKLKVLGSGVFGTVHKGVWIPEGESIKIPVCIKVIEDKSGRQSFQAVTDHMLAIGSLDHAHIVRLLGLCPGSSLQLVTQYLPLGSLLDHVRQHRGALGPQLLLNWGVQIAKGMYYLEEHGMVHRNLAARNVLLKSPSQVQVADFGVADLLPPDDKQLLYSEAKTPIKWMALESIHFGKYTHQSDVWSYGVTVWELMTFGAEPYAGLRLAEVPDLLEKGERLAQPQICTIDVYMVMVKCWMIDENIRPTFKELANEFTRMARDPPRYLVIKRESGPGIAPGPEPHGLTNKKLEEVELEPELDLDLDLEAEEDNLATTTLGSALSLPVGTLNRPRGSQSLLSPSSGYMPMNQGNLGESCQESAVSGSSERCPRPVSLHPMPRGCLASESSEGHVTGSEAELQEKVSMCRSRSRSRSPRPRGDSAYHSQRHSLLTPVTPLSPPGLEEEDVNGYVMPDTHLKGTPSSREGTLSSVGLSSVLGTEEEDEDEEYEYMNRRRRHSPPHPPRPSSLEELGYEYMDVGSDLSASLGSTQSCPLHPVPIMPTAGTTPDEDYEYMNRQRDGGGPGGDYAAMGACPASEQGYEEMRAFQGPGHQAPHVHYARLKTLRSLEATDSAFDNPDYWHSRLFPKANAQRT
# protocol details: cell-based or functional assay
endpoint: pAKT inhibition, EC50 (nM)
Give just the numeric value; nM need not be written.

Exercise: Bench note: what pAKT inhibition, EC50 (nM) did Rab1210 (antibody, V domains shown, also called Rab1210 monoclonal antibody) VH: QEQLEESGGGLVQPEGSLTLTCTASGFSFSSSYWICWVRQAPGKGLELIGYIWSGNGATYYASWAKGRFTISKTSSTTVTLQMTSVTATDTATYFCARNYDASGYGIFHLWGPGTLVTVSS VL: AVVMTQTPASVSAAVGGTVTINCQASQSIVSSYLSWYQQKTGQPPKLLIYSASKLASGVPPRFSGSGSGTQFTLTISGVQCDDAATYYCLYGVDSSNIDNAFGGGTEVVVK show?
Solution: 0.4
